The measurements presented in this section are drawn from patent US10995070B2.

target: Ustilago maydis acetyl CoA carboxylase (ACCase) (Ustilago maydis); assay: ACCase enzymatic assay (coupled PK/LDH, NADH OD340); format: biochemical; settings: read-out: ACCase Inhibitory Activity IC50
Sequence (A0A0D1DYD5 1-2185): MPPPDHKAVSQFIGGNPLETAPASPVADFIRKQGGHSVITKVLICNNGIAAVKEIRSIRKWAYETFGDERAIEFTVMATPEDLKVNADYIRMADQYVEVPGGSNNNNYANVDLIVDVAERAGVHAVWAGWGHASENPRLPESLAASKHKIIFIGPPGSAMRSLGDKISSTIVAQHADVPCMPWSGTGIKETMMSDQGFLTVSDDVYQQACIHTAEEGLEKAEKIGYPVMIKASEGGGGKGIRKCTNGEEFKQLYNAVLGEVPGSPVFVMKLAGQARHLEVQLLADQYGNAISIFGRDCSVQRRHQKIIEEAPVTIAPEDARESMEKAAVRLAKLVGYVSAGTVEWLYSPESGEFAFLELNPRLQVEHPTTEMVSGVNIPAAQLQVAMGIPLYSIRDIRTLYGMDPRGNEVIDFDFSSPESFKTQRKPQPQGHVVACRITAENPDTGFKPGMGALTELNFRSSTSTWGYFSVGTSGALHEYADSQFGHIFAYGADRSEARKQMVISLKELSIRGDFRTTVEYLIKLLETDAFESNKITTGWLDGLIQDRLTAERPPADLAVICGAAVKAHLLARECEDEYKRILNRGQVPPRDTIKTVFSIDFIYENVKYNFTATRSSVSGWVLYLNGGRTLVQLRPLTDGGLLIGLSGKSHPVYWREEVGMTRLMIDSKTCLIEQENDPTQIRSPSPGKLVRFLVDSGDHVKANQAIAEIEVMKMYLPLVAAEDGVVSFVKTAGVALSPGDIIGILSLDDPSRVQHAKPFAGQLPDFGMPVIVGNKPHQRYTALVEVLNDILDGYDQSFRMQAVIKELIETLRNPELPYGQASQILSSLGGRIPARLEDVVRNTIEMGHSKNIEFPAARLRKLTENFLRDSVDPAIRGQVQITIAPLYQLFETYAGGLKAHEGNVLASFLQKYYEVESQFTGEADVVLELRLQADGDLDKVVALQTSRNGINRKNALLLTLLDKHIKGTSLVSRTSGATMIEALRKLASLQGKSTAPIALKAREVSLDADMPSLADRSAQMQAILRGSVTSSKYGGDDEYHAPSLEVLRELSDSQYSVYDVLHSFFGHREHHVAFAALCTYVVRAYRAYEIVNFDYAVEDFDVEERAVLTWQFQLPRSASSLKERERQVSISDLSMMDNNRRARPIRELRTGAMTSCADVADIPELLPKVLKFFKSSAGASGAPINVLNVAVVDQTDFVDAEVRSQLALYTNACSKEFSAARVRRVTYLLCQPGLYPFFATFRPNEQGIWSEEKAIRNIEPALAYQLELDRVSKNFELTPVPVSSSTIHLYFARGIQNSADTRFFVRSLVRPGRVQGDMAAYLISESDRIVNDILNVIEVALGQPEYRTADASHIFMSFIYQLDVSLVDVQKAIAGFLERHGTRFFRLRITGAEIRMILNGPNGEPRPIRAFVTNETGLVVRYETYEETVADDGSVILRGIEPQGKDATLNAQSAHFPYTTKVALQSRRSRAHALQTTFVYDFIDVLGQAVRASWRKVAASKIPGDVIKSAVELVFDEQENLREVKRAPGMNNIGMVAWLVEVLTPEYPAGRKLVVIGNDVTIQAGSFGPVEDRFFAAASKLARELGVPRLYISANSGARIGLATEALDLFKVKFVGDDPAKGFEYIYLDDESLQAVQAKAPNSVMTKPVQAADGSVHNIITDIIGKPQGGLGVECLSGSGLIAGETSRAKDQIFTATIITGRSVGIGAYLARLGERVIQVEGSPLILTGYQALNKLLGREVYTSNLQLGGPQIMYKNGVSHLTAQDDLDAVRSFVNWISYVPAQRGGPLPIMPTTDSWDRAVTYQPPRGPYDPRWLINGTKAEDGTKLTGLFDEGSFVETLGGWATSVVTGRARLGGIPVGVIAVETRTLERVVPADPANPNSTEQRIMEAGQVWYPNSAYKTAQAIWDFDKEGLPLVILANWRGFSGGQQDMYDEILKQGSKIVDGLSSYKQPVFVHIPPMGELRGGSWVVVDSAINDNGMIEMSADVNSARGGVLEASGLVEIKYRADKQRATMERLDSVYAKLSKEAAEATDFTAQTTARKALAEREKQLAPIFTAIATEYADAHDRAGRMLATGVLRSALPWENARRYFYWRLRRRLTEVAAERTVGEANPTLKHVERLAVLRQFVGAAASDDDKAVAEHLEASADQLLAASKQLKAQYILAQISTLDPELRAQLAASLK
The following compounds are shown together with reported IC50 values.
Field: numeric (µM). Do not append units.

Answered examples (2):
Which IC50 is listed for NC(=O)COc1ccc(-c2cc(-c3ccccc3)c3ccccc3n2)cc1 ?
0.515

Next: O=C(COc1ccc(-c2cc(-c3ccccc3)c3cc(Cl)ccc3n2)cc1)NCCO
13

API: the following record is the query input.
Which IC50 is reported for this compound? O=C(O)Cc1ccc(-c2nc3ccccc3c(-c3ccccc3)c2Cl)s1
0.11
